assay: Plasma and urine pharmacology study of Compound 1 in rats (LC/MS after IV injection); assay type: in vivo; conditions: 10 µmol per animal; rat, IV tail vein 1 ml of 10 mM, urine at 30 minute; read-out: urine level
endpoint_name: tissue uptake at 30 min (%ID/g)
Answer with a number only, understood to be in %ID/g.

// tissue uptake at 30 min lookup, key: O=[N+]([O-])c1nccn1Cc1cn(C(CO)CF)nn1 (stereo not shown)
5.3

====

experiment: Bio-distribution and bio-stability of Compound 1 in mice (LC/MS of blood, urine and organs after IV injection); assay type: in vivo; settings: 1 µmol per animal; mouse, IV tail vein 200 μl of 5 mM, urine at 30 minutes; read-out: urine level
endpoint_name: tissue uptake at 30 min (%ID/g)
Answer with a number only, understood to be in %ID/g.

// tissue uptake at 30 min lookup, key: O=[N+]([O-])c1nccn1Cc1cn(C(CO)CF)nn1 (stereo not shown)
95.6

====

assay: Plasma and urine pharmacology study of Compound 1 in rats (LC/MS after IV injection); assay type: in vivo; details: whole blood, 10 µmol per animal; rat, IV tail vein 1 ml of 10 mM, blood at 120 minutes; read-out: blood level
endpoint_name: tissue uptake at 120 min (%ID/g)
Answer with a number only, understood to be in %ID/g.

// tissue uptake at 120 min lookup, key: O=[N+]([O-])c1nccn1Cc1cn(C(CO)CF)nn1 (stereo not shown) [Compound 1]
0.15

====

test: Plasma and urine pharmacology study of Compound 1 in rats (LC/MS after IV injection); format: in vivo; details: whole blood, 10 µmol per animal; rat, IV tail vein 1 ml of 10 mM, blood at 30 minutes; read-out: blood level
endpoint_name: tissue uptake at 30 min (%ID/g)
Answer with a number only, understood to be in %ID/g.

// tissue uptake at 30 min lookup, key: O=[N+]([O-])c1nccn1Cc1cn(C(CO)CF)nn1 (stereo not shown)
0.67

====

assay: Bio-distribution and bio-stability of Compound 1 in mice (LC/MS of blood, urine and organs after IV injection); type: in vivo; details: whole blood, 1 µmol per animal; mouse, IV tail vein 200 μl of 5 mM, blood at 30 minutes; read-out: blood level
endpoint_name: tissue uptake at 30 min (%ID/g)
Answer with a number only, understood to be in %ID/g.

// tissue uptake at 30 min lookup, key: O=[N+]([O-])c1nccn1Cc1cn(C(CO)CF)nn1 (stereo not shown) [Compound 1]
4.1
